target: Thymidine phosphorylase (Homo sapiens, UniProt P19971)
Sequence (P19971 whole entry): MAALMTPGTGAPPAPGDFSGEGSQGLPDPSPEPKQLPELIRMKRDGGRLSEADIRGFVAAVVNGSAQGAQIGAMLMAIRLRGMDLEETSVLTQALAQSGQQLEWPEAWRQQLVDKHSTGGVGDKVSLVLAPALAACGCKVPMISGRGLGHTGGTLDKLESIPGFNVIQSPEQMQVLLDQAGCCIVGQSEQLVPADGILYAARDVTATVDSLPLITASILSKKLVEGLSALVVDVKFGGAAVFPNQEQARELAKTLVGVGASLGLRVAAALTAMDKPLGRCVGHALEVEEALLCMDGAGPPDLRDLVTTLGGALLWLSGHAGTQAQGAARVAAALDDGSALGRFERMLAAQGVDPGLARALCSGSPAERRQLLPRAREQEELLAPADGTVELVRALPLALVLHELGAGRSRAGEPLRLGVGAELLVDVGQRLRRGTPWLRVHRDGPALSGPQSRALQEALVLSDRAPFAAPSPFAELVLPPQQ
// molecules with reported pIC50 on Thymidine phosphorylase (Homo sapiens, UniProt P19971), multi-publication
In simple prose, pIC50 is minus the logarithm base ten of a concentration in moles per litre.

Known pIC50 results, listed for orientation:
CNC(=O)c1ncn([C@@H]2O[C@H](COC(c3ccccc3)(c3ccccc3)c3ccccc3)[C@@H](O)[C@H]2O)c1N; 3.86
Cc1cc(=O)[nH]c(=O)n1/C(=N\O)c1ccc(Cl)c(Cl)c1; 6.92
O=c1[nH]c(=O)n(/C(=N/O)c2ccccc2)cc1I; 4.43
O=c1[nH]c(=O)n(/C(=N/O)c2ccc(F)cc2)cc1I; 4.38

What measured pIC50 is associated with "O=c1[nH]c(Cn2cnc([N+](=O)[O-])c2)c(Br)c(=O)[nH]1" on Thymidine phosphorylase (Homo sapiens, UniProt P19971)?
3.74

What measured pIC50 is associated with "Cc1cccc(/C(=N/O)n2c(C)cc(=O)[nH]c2=O)c1" on Thymidine phosphorylase (Homo sapiens, UniProt P19971)?
4.80

What measured pIC50 is associated with "COc1ccc(/C(=N/O)n2c(C)cc(=O)[nH]c2=O)cc1" on Thymidine phosphorylase (Homo sapiens, UniProt P19971)?
4.78

What measured pIC50 is associated with "O=c1[nH]c(=O)n(/C(=N/O)c2ccc(Cl)cc2)cc1I" on Thymidine phosphorylase (Homo sapiens, UniProt P19971)?
4.81

What measured pIC50 is associated with "Cc1cc(=O)[nH]c(=O)n1/C(=N\O)c1cccc(F)c1" on Thymidine phosphorylase (Homo sapiens, UniProt P19971)?
4.39
